test system: SNB-19 CNS; test: NCI-60 one-dose screen, 48 h (100 = growth as untreated, 0 = no growth, -100 = all killed); conditions: 10 µM
This is part of a sample that, as a whole, favours compounds with a hit. Of some 83,000 tested, about 20% had one in any assay.
Note to self: use Met only for growth readings below -40%; a reading exactly at -40% still gets Not met.

smiles_repr	class
COc1cc2cc(C(=O)N3C[C@@H](CCl)c4c3cc(OC(=O)N3CCN(C(=O)CCC(=O)N5CCN(C)CC5)[C@@H]5CSSC[C@@H]53)c3ccccc43)[nH]c2c(OC)c1OC	Met
CC1=C(CCC=NNC(N)=O)C2=C(C)C3(CC3)[C@@](C)(O)C(=O)C2=C1	Not met
CC[C@]12C=CCN3CC[C@@]4(c5ccc(OC)cc5N(C)[C@H]4[C@@](O)(C(=O)OC)[C@@H]1OC(=O)CCCC[P+](C1CCCCC1)(C1CCCCC1)C1CCCCC1)[C@@H]32	Met
COC(=O)C[C@](O)(CCC(C)C)C(=O)O[C@@H]1C(OC)=C[C@]23CCCN2CCc2cc4c(cc2[C@H]13)OCO4	Not met
C[C@H]1[C@H](OC(=O)CCC(=O)N(CCCc2cn(-c3ccc([N+](=O)[O-])cc3)nn2)CCNc2ccnc3cc(Cl)ccc23)O[C@@H]2OC3(C)CC[C@H]4[C@H](C)CC[C@@H]1[C@@]24OO3	Not met
O=C(/C=C/c1ccc(Cl)cc1Cl)c1nc2ccccc2n1Cc1ccc(Br)cc1	Not met

----------
test system: DU-145 prostate; assay: NCI-60 one-dose screen, 48 h; details: 10 µM
The panel holds about 83,000 compounds, 20% with a hit somewhere; the sample as a whole holds those more often. Calls of active or inactive are those of the source. The calls were made as follows: active = growth percent below 10; inactive = the rest.
Possible outcomes: True (active), False (inactive)

molecule	class
CC1=C(C=O)C2=C(C)C3(CC3)[C@@](C)(O)C(=O)C2=C1	True
CC[C@]12C=CCN3CC[C@@]4(c5ccc(OC)cc5N(C)[C@H]4[C@@](O)(C(=O)OC)[C@@H]1OC(=O)CCCC[P+](C1CCCCC1)(C1CCCCC1)C1CCCCC1)[C@@H]32	True
CC1=C(CCC=O)C2=C(C)C3(CC3)[C@@](C)(O)C(=O)C2=C1	True
C[C@H]1[C@H](OC(=O)CCC(=O)N(CCCc2cn(-c3ccc(CN4CCOCC4)cc3)nn2)CCNc2ccnc3cc(Cl)ccc23)O[C@@H]2OC3(C)CC[C@H]4[C@H](C)CC[C@@H]1[C@@]24OO3	False
CCOC(=O)C1=C(Nc2ccccc2)C(=O)OC12C(=O)Nc1ccccc12 (stereo unspecified)	False
C#CCCCN(CCNc1ccnc2cc(Cl)ccc12)C(=O)CCC(=O)O[C@@H]1O[C@@H]2OC3(C)CC[C@H]4[C@H](C)CC[C@@H]([C@H]1C)[C@@]24OO3	False
C[C@H]1[C@@H](Oc2ccc(-c3cn(-c4ccnc5cc(Cl)ccc45)nn3)cc2)O[C@@H]2OC3(C)CC[C@H]4[C@H](C)CC[C@@H]1[C@@]24OO3	False
COc1cc2cc(C(=O)N3C[C@@H](CCl)c4c3cc(OC(=O)N3CCN(C)[C@@H]5CSSC[C@H]53)c3ccccc43)[nH]c2c(OC)c1OC	True
O=C(/C=C/c1ccc(Cl)cc1Cl)c1nc2ccccc2n1Cc1ccc(F)cc1	False
N#C[Se]CC(=O)Nc1cccc(C(F)(F)F)c1	True
COC(=O)CCn1c(-c2ccc(-n3cc(-c4ccc(O[C@H]5O[C@@H]6OC7(C)CC[C@H]8[C@H](C)CC[C@@H]([C@H]5C)[C@@]68OO7)cc4)nn3)cc2)nc2ccccc21	False
CCOP(=O)(CC(F)(F)C(F)(F)F)OCC	False
COc1ccc(/C=C/C(=O)c2nc3ccccc3n2Cc2ccc(Br)cc2)cc1	False
O=C(/C=C/c1ccc(Br)cc1)c1nc2ccccc2n1Cc1ccc(Br)cc1	False
COc1cc(OC)c(S(=O)(=O)N(CCCl)CCCl)cc1C(=O)/C=C/c1cc(OC)c(OC)c(OC)c1	True
COC(=O)C[C@](O)(CCC(C)C)C(=O)O[C@@H]1C(OC)=C[C@]23CCCN2CCc2cc4c(cc2[C@H]13)OCO4	True

----------
Test system: HL-60(TB) leukemia
Assay: NCI-60 one-dose screen, 48 h (100 = growth as untreated, 0 = no growth, -100 = all killed)
Settings: 10 µM unless noted
Method: Growth inhibition of the HL-60(TB) human tumor cell line is measured as a screen for anti-cancer activity. Cells are grown in 96 well plates and exposed to the test compound for 48 hours. Compounds are tested at a single concentration, which is 10^-5 M for most compounds. The reported endpoint is percent growth (GI% or GIPRCNT), where numbers from 0 - 100% represent growth inhibition, and numbers from -100% - 0 represent cell death. For example, a value of 40 represents 60% growth inhibition. […]
The panel holds about 83,000 compounds, 20% with a hit somewhere; the sample as a whole holds those more often.

compound	value_units	growth
O=c1c2ccccc2nc(-c2ccccc2)n1/N=C/c1ccc2ccccc2c1	%	35.7
O=C(NC(=S)N1CCN(c2ncnc3c2cnn3-c2ccccc2)CC1)c1ccc(F)cc1	%	64.8
NS(=O)(=O)c1ccc(CCNC(=O)CSc2ccc(-c3ccc(Br)cc3)nn2)cc1	%	55.4
CCOP(=O)(OCC)O[C@H]1CC[C@]2(C)[C@H]3CC[C@@H]4[C@@H]([C@](C)(O)CCC=C(C)C)CC[C@@]4(C)[C@]3(C)CC[C@H]2C1(C)C	%	0.463
CN(C)CCn1c2ccccc2c2nc3cc4ccccc4cc3nc21	%	-51.2
Nc1nc(Nc2ccc(Cl)cc2)n(Cc2cccc(Br)c2)n1	%	-14.2
CC1CC(c2ccc(N(C)C)cc2)=NN1c1nc(O)c(C2=c3cc(Br)ccc3=NC2=O)s1 (configuration not stated)	%	68.7
COc1c(B(O)O)cc(F)cc1-c1nc2c(F)cc3[nH]ncc3c2c2c1CCCC2	%	1.83
Cn1cc(-c2nnc(N)nc2-c2c[nH]c3ccc(Br)cc23)c2cc(Br)cnc21	%	29.8
C=C1CCC2C3(C)COC(c4ccccc4F)OC3CCC2(C)C1CC(O)C1=CCOC1=O (configuration not stated)	%	70.5
COc1nc(N)ncc1-c1ccc2ncnc(N3CCc4cc(F)c(Cl)cc43)c2c1	%	47
O=c1oc2ccc(Br)cc2cc1C1=CSc2nc3sc4c(c3c(=O)n2N=C1)CCCC4	%	45.4
CC1=C(C#N)C2=NNCC(c3ccccc3)=NN2C(c2ccccc2)=C1	%	138
COc1cc2oc(-c3cccc(C(=O)Nc4cccc([N+](=O)[O-])c4)c3)cc(=O)c2c(OC)c1OC	%	101
N/N=C(\N)c1c(N)nc(=S)[nH]c1-c1ccc(Cl)cc1Cl	%	89.1
N/C(=N\c1nc2ccccc2s1)NC(=O)Nc1ccc(Cl)cc1Cl	%	-66
N#Cc1c(Cl)nc(SCc2ccc(F)cc2)nc1-c1ccc(F)cc1	%	50.2
C=Cn1cc(C(=O)O)c(=O)c2cc(F)c(N3CCN(c4nccc(-c5nccs5)n4)CC3)cc21	%	-24.7
O=C(Nc1ccc(-c2ccc3c(c2)NC(=O)/C3=C\c2ccc[nH]2)cc1)Nc1cccc(Cl)c1	%	10.6
CC[C@]12C=CCN3CC[C@@]4(c5ccc(OC)cc5N(C)[C@H]4[C@@](O)(C(=O)OC)[C@@H]1OC(=O)CCC[P+](c1ccc(OC)cc1)(c1ccc(OC)cc1)c1ccc(OC)cc1)[C@@H]32	%	-39.7
Brc1ccc(-c2n(Cc3ccc4ccccc4c3)c(-c3ccccc3)c(-c3ccccc3)[n+]2Cc2ccc3ccccc3c2)cc1	%	-5.57
COc1ccc(-c2cc(C(=O)OCc3ccc(Br)cc3)nn2-c2ccc(S(C)(=O)=O)cc2)cc1OC	%	83.6
Clc1ccc2c(N/N=C/c3c[nH]c4ccc(Br)cc34)ccnc2c1	%	-74.7
CCCn1c(=O)c2[nH]c(-c3ccc(OCc4nc5ccc(C#N)cc5[nH]4)cc3)nc2n(CCC)c1=O	%	95.4
O=S(=O)(Nc1ncccn1)c1ccc(-n2c(-c3ccc(Br)cc3)nc(-c3ccccc3)c2-c2ccccc2)cc1	%	41.2
COc1ccc(C2c3sc4ccc(C)cc4c3Oc3nc[nH]c(=O)c32)cc1 (configuration not stated)	%	85.2
Cn1cc(-c2cc(N)n3nc(-c4cn(C)c5ncccc45)cc3n2)c2cccnc21	%	39.2
CN(C)CCc1cn(C2CCC2)c2cccc(O)c12	%	12.5
Cc1cc(C(NC(=O)C2CC3(CC(Nc4cccc5c4C(=O)N(C4CCC(=O)NC4=O)C5=O)C3)C2)c2ccc3c(c2)OC(F)(F)O3)c(O)c2ncccc12 (configuration not stated)	%	-16.4
COc1ccc(-c2nc3cc(C)ccc3n2CC(=O)N=Nc2c(O)[nH]c3ccc(OC)cc23)cc1	%	-62.1
CC(C)c1ccc(C(=O)Nc2sc3c(c2C(N)=O)CCC(=O)C3=O)cc1	%	96.9
OCCCNc1oc(-c2ccccc2)nc1[P+](c1ccccc1)(c1ccccc1)c1ccccc1	%	-35.8
COc1cc(-c2nc3ccc(C)cc3[nH]2)ccc1OCc1nnc(-c2ccc(Br)cc2)o1	%	-34.8
CN1CCO/C1=C(/NC(=O)c1ccc(Cl)cc1)[P+](c1ccccc1)(c1ccccc1)c1ccccc1	%	54.7
O=C(COc1ccc(NC(=O)Nc2ccc(Cl)c(Cl)c2)cc1)N=Nc1c(O)[nH]c2ccc(Cl)cc12	%	-23
COc1ccc2[nH]c(O)c(N=NC(=O)c3ccc4nc(-c5ccc(Cl)cc5)[nH]c4c3)c2c1	%	88.5
COc1cc2c(cc1OC)/C(=C\c1sc(Nc3ccc(O)cc3)nc1O)C(C(=O)O)=N2	%	-17.5
